# target.of.assay: Fibroblast growth factor receptor 3 (Homo sapiens) (UniProt P22607)
# Sequence (P22607 23-806 limits assumed): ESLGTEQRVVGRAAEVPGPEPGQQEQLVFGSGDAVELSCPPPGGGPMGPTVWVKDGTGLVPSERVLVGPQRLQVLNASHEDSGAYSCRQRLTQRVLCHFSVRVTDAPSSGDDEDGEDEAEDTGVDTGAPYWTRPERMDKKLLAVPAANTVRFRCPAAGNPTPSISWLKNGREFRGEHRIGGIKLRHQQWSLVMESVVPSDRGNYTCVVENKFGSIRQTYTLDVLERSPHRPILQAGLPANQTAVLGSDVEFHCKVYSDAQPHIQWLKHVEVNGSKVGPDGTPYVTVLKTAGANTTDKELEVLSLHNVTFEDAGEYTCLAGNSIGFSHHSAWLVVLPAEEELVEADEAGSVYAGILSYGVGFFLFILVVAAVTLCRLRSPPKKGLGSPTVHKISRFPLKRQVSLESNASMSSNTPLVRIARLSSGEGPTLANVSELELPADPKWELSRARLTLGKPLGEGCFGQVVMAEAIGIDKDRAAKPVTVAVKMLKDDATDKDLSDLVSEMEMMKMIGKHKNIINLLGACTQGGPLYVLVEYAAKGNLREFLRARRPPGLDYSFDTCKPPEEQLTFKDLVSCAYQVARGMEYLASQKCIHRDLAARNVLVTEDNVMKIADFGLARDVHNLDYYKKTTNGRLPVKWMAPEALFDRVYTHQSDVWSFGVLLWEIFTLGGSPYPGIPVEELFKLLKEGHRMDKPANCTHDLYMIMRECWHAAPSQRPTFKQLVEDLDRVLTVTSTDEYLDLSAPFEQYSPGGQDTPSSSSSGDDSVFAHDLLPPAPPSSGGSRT
# procedure.summary: Inhibition of FGFR3 at 50 uM
Activity calls are given as the source filed them. No cut-off for these calls is given here.
Please state which outcome applies, choosing from true (1) = active, false (0) = inactive

Some solved entries appear below for comparison.
Ask | What was the test verdict on OC[C@H]1O[C@@H](CNc2nc(NCCc3ccccc3)c3nc[nH]c3n2)[C@@H](OCc2ccccc2)[C@@H]1OCc1ccccc1 ?
Reply | true (1)

Ask | Do the same for CCN(CC)CCCNc1nc(Nc2ccccc2)c2ncn(C[C@@H]3O[C@H](CO)[C@@H](O)[C@H]3O)c2n1 please
Reply | false (0)

Ask | Do the same for COc1ccc(CCNc2nc(NC[C@@H]3O[C@H](CO)[C@@H](O)[C@@H]3O)c3nc[nH]c3n2)cc1OC please
Reply | true (1)

Now take the following molecule into account.
Ask | What was the test verdict on Nc1ncc2ncn(C[C@@H]3O[C@H](CO)[C@@H](O)[C@H]3O)c2n1 ?
Reply | false (0)
